- target of assay: human melanocortin 1 receptor (human, UniProt Q01726 1-317)
- Sequence (Q01726 whole entry): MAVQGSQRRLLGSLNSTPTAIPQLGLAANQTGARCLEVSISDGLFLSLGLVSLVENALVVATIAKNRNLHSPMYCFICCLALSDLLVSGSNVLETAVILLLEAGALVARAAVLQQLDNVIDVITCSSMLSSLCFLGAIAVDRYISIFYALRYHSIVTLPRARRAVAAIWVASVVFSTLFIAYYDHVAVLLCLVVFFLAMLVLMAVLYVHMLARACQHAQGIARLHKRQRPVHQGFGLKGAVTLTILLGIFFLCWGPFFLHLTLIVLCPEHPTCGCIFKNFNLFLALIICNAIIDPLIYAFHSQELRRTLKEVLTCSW
- assay notes: cell-based or functional assay
Positions of bridges follow the written chain, without caps; N, C: chain ends. Non-standard residues stand in square brackets, D forms with d. Pen = CC(C)(S)[C@H](N)C(=O)O; Orn = NCCC[C@H](N)C(=O)O; Thz = O=C(O)[C@@H]1CSCN1
readout name: MC1R cAMP EC50 (µM)
Quick note: give the figure in µM, leave out the unit.

Reference set, count: 2
Inquiry: Would you kindly share the measured MC1R cAMP EC50 for cyclo(C[Thz]H[dF]HWCAHE[Orn]R) (disulfide 1-7; SMILES C[C@@H]1NC(=O)[C@@H]2CSSC[C@H](NC(=O)[C@H](CCCNC(=N)N)NC(=O)[C@H](CCCN)NC(=O)[C@H](CCC(=O)O)NC(=O)[C@H](Cc3c[nH]cn3)NC1=O)C(=O)N1CSC[C@H]1C(=O)N[C@@H](Cc1c[nH]cn1)C(=O)N[C@H](Cc1ccccc1)C(=O)N[C@@H](Cc1c[nH]cn1)C(=O)N[C@@H](Cc1c[nH]c3ccccc13)C(=O)N2) [Chem. 120] ?
Reply text: 0.294

Inquiry: Reported MC1R cAMP EC50, binder cyclo(C[Thz]H[dF]HW[Pen]KKAAW) (disulfide 1-7; SMILES C[C@@H]1NC(=O)[C@H](C)NC(=O)[C@H](CCCCN)NC(=O)[C@H](CCCCN)NC(=O)[C@H]2NC(=O)[C@H](Cc3c[nH]c4ccccc34)NC(=O)[C@H](Cc3c[nH]cn3)NC(=O)[C@@H](Cc3ccccc3)NC(=O)[C@H](Cc3c[nH]cn3)NC(=O)[C@@H]3CSCN3C(=O)[C@H](CSSC2(C)C)NC(=O)[C@H](Cc2c[nH]c3ccccc23)NC1=O) [Chem. 117] : ____
Reply text: 0.168

Turning to the following binder.
Inquiry: What MC1R cAMP EC50 value was documented for this binder, cyclo(C[Thz]H[dF]HWCKA[dK]AW) (disulfide 1-7; SMILES C[C@@H]1NC(=O)[C@H](CCCCN)NC(=O)[C@@H]2CSSC[C@H](NC(=O)[C@H](Cc3c[nH]c4ccccc34)NC(=O)[C@H](C)NC(=O)[C@@H](CCCCN)NC1=O)C(=O)N1CSC[C@H]1C(=O)N[C@@H](Cc1c[nH]cn1)C(=O)N[C@H](Cc1ccccc1)C(=O)N[C@@H](Cc1c[nH]cn1)C(=O)N[C@@H](Cc1c[nH]c3ccccc13)C(=O)N2) [Chem. 114] ?
Reply text: 0.114
